# target desc: Carbonic anhydrase 9 (Homo sapiens)
Ki vs 200 nM: less than gives True; not less than gives False.

Example entries and their recorded answers appear below.
INSERT INTO measurements (smi, assigned_label) VALUES
  ('NS(=O)(=O)c1ccc(CC/N=C/c2ccc(Br)cc2O)cc1', 'True'),
  ('NS(=O)(=O)c1ccc(CC/N=C/c2c(F)c(F)cc(F)c2F)cc1', 'False'),
  ('N#Cc1ccc(/C=N/CCc2ccc(S(N)(=O)=O)cc2)cc1', 'True'),
  ('COc1ccc(/C=N/CCc2ccc(S(N)(=O)=O)cc2)c(O)c1', 'False'),
  ('COc1cc([N+](=O)[O-])ccc1/C=N/CCc1ccc(S(N)(=O)=O)cc1', 'True');

Challenge: Please determine if NS(=O)(=O)c1ccc(/N=C/c2ccc(-c3ccccc3)cc2)c(F)c1 is below 200 nM in terms of Ki.
Response given: True

Challenge: Please determine if NS(=O)(=O)c1ccc(/N=C/c2ccc(Br)cc2O)cc1 is below 200 nM in terms of Ki.
Response given: True

Challenge: Please determine if CSc1ccc(/C=N/CCc2ccc(S(N)(=O)=O)cc2)cc1 is below 200 nM in terms of Ki.
Response given: True
